Target: LXRβ ligand-binding domain (Homo sapiens, UniProt P55055, DUP175-175)
Construct: amino acids 156-461; NP009052; made in house; host or cells: E. coli
Sequence (P55055 with tags, fused parts or gaps DUP175-175 limits assumed): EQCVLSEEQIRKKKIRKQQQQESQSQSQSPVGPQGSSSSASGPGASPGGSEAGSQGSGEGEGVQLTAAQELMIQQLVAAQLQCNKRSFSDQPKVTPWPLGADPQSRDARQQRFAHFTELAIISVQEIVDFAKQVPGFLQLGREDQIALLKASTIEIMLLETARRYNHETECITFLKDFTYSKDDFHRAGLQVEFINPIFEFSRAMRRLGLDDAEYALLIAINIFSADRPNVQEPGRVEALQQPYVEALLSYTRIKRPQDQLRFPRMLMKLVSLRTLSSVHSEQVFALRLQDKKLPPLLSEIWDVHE
Assay: TR-FRETβ activity assay (NCoA3 coactivator peptide recruitment)
Assay type: biochemical
Conditions: TR-FRET, 1 μM 24(S)-25-epoxycholesterol prestimulation; read-out: FRETβ (EC50 range)
measured.parameter: EC50

[
  {
    "molecule": "Cn1cnc(S(=O)(=O)n2c(-c3cccs3)c(-c3ccsc3C#N)c3ccccc32)c1 [1/28]",
    "measured.parameter": "EC50",
    "result.value": "1 to 10 µM"
  },
  {
    "molecule": "N#Cc1sccc1-c1c(-c2cccs2)n(S(=O)(=O)c2ccc(CCC(=O)O)cc2)c2ccccc12 [23/1]",
    "measured.parameter": "EC50",
    "result.value": "1 to 10 µM"
  },
  {
    "molecule": "O=C(O)c1ccc(-c2cccc(-c3c(-c4ccsc4C(F)F)c4cc(F)ccc4n3S(=O)(=O)c3ccc(Cl)cc3)c2)c(Cl)c1 [11/21]",
    "measured.parameter": "EC50",
    "result.value": "< 0.1 µM"
  },
  {
    "molecule": "COc1cccc(-c2c(-c3cccc(-c4ccc(C(=O)O)cc4Cl)c3)n(S(=O)(=O)c3ccc(C)cc3)c3ccc(F)cc23)c1C#N [11/3]",
    "measured.parameter": "EC50",
    "result.value": "< 0.1 µM"
  },
  {
    "molecule": "Cc1ccc(S(=O)(=O)n2c(-c3cccc(-c4ccc(CN5CCN(C)CC5)cc4)c3)c(-c3ccsc3C#N)c3cc(F)ccc32)cc1 [Example 8]",
    "measured.parameter": "EC50",
    "result.value": "0.1 to 1 µM"
  },
  {
    "molecule": "N#Cc1cccnc1-c1c(-c2cccc(-c3ccc(C(=O)O)cc3Cl)c2)n(S(=O)(=O)c2ccc(C(F)F)cc2)c2ccc(F)cc12 [11/26]",
    "measured.parameter": "EC50",
    "result.value": "< 0.1 µM"
  },
  {
    "molecule": "N#Cc1nccnc1-c1c(-c2cccc(-c3cc(F)c(C(=O)O)cc3Cl)c2)n(S(=O)(=O)c2ccc(C(F)F)cc2)c2ccc(F)cc12 [11/11]",
    "measured.parameter": "EC50",
    "result.value": "< 0.1 µM"
  },
  {
    "molecule": "N#Cc1sccc1-c1c(-c2cccs2)n(S(=O)(=O)c2ccc(Cl)cc2)c2ccc(C(=O)O)cc12 [Example 23]",
    "measured.parameter": "EC50",
    "result.value": "> 10 µM"
  },
  {
    "molecule": "Cc1cc(S(=O)(=O)n2c(-c3cccc(-c4ccc(C(=O)O)cc4Cl)c3)c(-c3ccsc3C#N)c3cc(F)ccc32)ccc1F [3/23]",
    "measured.parameter": "EC50",
    "result.value": "0.1 to 1 µM"
  },
  {
    "molecule": "CC1CCN(S(=O)(=O)n2c(-c3cccc(-c4ccc(C(=O)O)cc4Cl)c3)c(-c3ccsc3C#N)c3cc(F)ccc32)CC1 [3/21]",
    "measured.parameter": "EC50",
    "result.value": "0.1 to 1 µM"
  },
  {
    "molecule": "N#Cc1cccc(C#N)c1-c1c(-c2cccc(-c3ccc(C(=O)O)cc3Cl)c2)n(S(=O)(=O)c2ccc(C(F)F)cc2)c2cc(F)c(O)cc12 [Example 44]",
    "measured.parameter": "EC50",
    "result.value": "0.1 to 1 µM"
  },
  {
    "molecule": "CC1CCN(S(=O)(=O)n2c(-c3cccc(N4CC(C(=O)O)C4)c3)c(-c3ccsc3C#N)c3cc(F)ccc32)CC1 [3/36]",
    "measured.parameter": "EC50",
    "result.value": "1 to 10 µM"
  }
]
